Reference for the values: patent US20200010910A1

tested on: 5637; assay: MTT assay IC50, bladder cancer cell line; type: cell-based, human; conditions: 72 hours, listed as Carboplatin
METRIC NAME: IC50 (µM)
Respond numerically; units are µM and should not be typed.

Q. # query: IC50 of entry N.N.O=C([O-])C1(C(=O)[O-])CCC1.[Pt+2] [carboplatin]
A. 24.4

###

The compounds listed here are annotated with their pIC50.
tested on: TCCSUP; assay: MTT assay IC50, bladder cancer cell line; format: cell-based
Lab note: report pIC50 as minus log10 of the concentration in molar units, number only.

# COMPOUND, pIC50
records = [
    ("N.N.O=C([O-])C1(C(=O)[O-])CCC1.[Pt+2]", 4.04),
]

API: the following record is the query input.
Q. # query: pIC50 of entry N.N.[Cl][Pt][Cl] [cisplatin]
A. 4.93

###

test system: T24; experiment: MTT assay IC50, bladder cancer cell line; type: cell-based
The molecules listed here are annotated with their pIC50.
Lab note: report pIC50 as minus log10 of the concentration in molar units, number only.

Q. # query: pIC50 of entry N.N.O=C([O-])C1(C(=O)[O-])CCC1.[Pt+2] [carboplatin]
A. 4.37

Q. # query: pIC50 of entry N.N.[Cl][Pt][Cl] [cisplatin]
A. 5.28

###

The compounds listed here are annotated with their IC50.
test system: H1975; assay: MTT assay IC50; type: cell-based, human
Respond numerically; units are µM and should not be typed.

# COMPOUND, UNITS OF MEASURE, IC50
measured = [
    ("N.N.[Cl][Pt][Cl] [cisplatin]", "µM", 14.5),
]

Q. Please tell me: IC50 of N.N.O=C([O-])C1(C(=O)[O-])CCC1.[Pt+2] , system H1975?
A. 88.5

###

tested on: MDA MB 231; experiment: MTT assay, carboplatin cytotoxicity; format: cell-based, human; details: 72 hours
METRIC NAME: IC50 (µM)
Respond numerically; units are µM and should not be typed.

Q. # query: IC50 of entry N.N.O=C([O-])C1(C(=O)[O-])CCC1.[Pt+2] [carboplatin]
A. 250

###

Assay: carboplatin plasma pharmacokinetics in mice
Type: in vivo, Balb/c mice
Details: microdose 0.373 mg/kg
Method: Balb/c mice received a bolus [^14C]carboplatin tail vein injection at microdose (0.373 mg/kg; 50,000 dpm/gm) or therapeutic dose (37.3 mg/kg; 50,000 dpm/gm). Mice were sacrificed in triplicate at 15 min, 1 h, 2 h, 8 h and 24 h. Concentrations of carboplatin in plasma were measured by liquid scintillation counting at each time point.
METRIC NAME: Cmax (nM)
Respond numerically; units are nM and should not be typed.

Q. # query: Cmax of entry N.N.O=C([O-])C1(C(=O)[O-])CCC1.[Pt+2]
A. 1000

###

system: 5637R; experiment: CellTiter 96 Aqueous cell proliferation assay; type: cell-based; details: Homo sapiens, 72 hr continuous treatment
METRIC NAME: pIC50
Lab note: report pIC50 as minus log10 of the concentration in molar units, number only.

Q. # query: pIC50 of entry Nc1ccn([C@@H]2O[C@H](CO)[C@@H](O)[C@@H]2O)c(=O)n1
A. 4.22
